Tested on: SW-620 colon
PROCEDURE SUMMARY: NCI tumour cell line growth inhibition, 48 h
PROPERTY: TGI (µM)
Provide only the numeric value, understood in µM.

COc1ccc(NC(=O)/C(N=O)=C(/C)O)cc1: 30
COc1c(OC)c(OC)c(C(=O)/C=C/c2ccccc2)c(OC)c1OC: 31
Oc1cc(O)c2c(c1)OC(c1ccc(O)c(O)c1)C(OC1(c3cc(O)c(O)c(O)c3)Oc3cc(O)cc(O)c3C(O)C1O)C2 (stereo not given): 60.4
Cc1nc2cnc(N)c(C#Cc3cncc(C(=O)Nc4ccc(CN5CCN(C)CC5)c(C(F)(F)F)c4)c3)c2nc1C: 3.21

Read the next record carefully.
Form field, TGI with SW-620 colon, item CC(C)=CCc1cc(O)cc2c1OC(C=C(C)C)C1=C2C(=O)C2=C(NCCS2(=O)=O)C1=O (stereo not given) : 5.78
